Molecular target: human LPA1 (Homo sapiens)
Construct: the full-length cDNA for human LPA1 was obtained by PCR of the reverse transcription reaction
Sequence (Q92633 whole entry): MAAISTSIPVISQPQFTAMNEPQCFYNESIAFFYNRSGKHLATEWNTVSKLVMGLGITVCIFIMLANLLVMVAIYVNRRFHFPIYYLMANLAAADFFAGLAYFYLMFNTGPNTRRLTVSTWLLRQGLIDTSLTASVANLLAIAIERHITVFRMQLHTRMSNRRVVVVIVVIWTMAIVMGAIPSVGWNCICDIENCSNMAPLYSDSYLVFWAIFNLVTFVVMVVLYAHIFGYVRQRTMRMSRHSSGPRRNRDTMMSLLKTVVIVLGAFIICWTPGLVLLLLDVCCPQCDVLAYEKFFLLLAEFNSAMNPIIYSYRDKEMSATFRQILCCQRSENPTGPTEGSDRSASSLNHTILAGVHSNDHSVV
Experiment: LPA1 calcium flux assay
Details: human LPA1 expressing CHO cells, stimulated with 10 nM LPA; read-out: HLPA1 Ca Flux IC50
Below: a set of entries, each annotated with reported IC50.

Ask | Endpoint output: IC50 of Cc1noc(-c2ccc(-c3ccc(CC(=O)O)cc3)cc2)c1C(O)c1cn(Cc2cccc(C(F)(F)F)c2)nn1 (stereo not shown) . Value?
Reply | > 50 µM

Ask | Param item = COc1ccc(-c2cccc(Nc3c(C)noc3-c3ccc(-c4ccc(C5(C(=O)O)CC5)cc4)cc3)c2)cn1 ; retrieve measured IC50.
Reply | < 0.3 µM

Ask | So what's the measured IC50 for this one? Cc1noc(-c2ccc(-c3ccc(C4(C(=O)O)CC4)cc3)cc2)c1Nc1cc(-c2ccccc2)ccn1
Reply | < 0.3 µM

Ask | Name the recorded IC50 for Cc1noc(-c2ccc(-c3ccc(C4(C(=O)O)CC4)cc3)cc2)c1CN1C(=O)OC[C@@H]1Cc1ccccc1 .
Reply | > 50 µM

Ask | Please report the recorded IC50 for Cc1noc(-c2ccc(-c3ccc(C4(C(=O)O)CC4)cc3)cc2)c1Nc1cccc(OC2CCCCC2)n1 .
Reply | < 0.3 µM

Next:
Ask | GET /values?readout=IC50&item= Cc1ccccc1Cn1cc(C(O)c2c(C)noc2-c2ccc(-c3ccc(C4(C(=O)O)CC4)cc3)cc2)nn1 (stereo not shown)
Reply | < 0.3 µM

Ask | So what's the measured IC50 for this one? Cc1noc(-c2ccc(-c3ccc(C4(C(=O)O)CC4)cc3)cc2)c1CN1CCC(c2ccccc2)CC1
Reply | > 50 µM

Ask | Request the reported IC50 associated with Cc1noc(-c2ccc(-c3ccc(C4(C(=O)O)CC4)cc3)cc2)c1Nc1cncc(-c2cccc(Cl)c2)c1
Reply | < 0.3 µM

Ask | Requested field: IC50. Item: Cc1noc(-c2ccc(-c3ccc(C4(C(=O)O)CC4)cc3)cc2)c1C1CN(Cc2ccccc2)C(=O)O1 (stereo not shown)
Reply | < 0.3 µM

Ask | Recorded IC50 for Cc1noc(-c2ccc(-c3ccc(C4(C(=O)O)CC4)cc3)cc2)c1C(O)c1cn(Cc2cccc(Cl)c2)nn1 (stereo not shown) , please?
Reply | < 0.3 µM

Ask | Form field: reported IC50 of Cc1noc(-c2ccc(-c3ccc(C4(C(=O)O)CC4)cc3)cc2)c1Nc1cccc(S(=O)(=O)c2ccccc2)n1
Reply | < 0.3 µM

Ask | Item under review: COc1ccc(-c2cccc(Nc3c(C)noc3-c3ccc(-c4ccc(C5(C(=O)O)CC5)cc4)cc3)n2)cc1 . Reported IC50?
Reply | < 0.3 µM

Ask | What does the data say about its IC50? Entry: Cc1noc(-c2ccc(-c3ccc(C4(C(=O)O)CC4)cc3)cc2)c1C(O)c1nnc(-c2ccccc2)o1 (stereo not shown)
Reply | < 0.3 µM

Ask | GET /values?readout=IC50&item= Cc1noc(-c2ccc(-c3ccc(C4(C(=O)O)CC4)cc3)cc2)c1Nc1cccc(C#Cc2ccccc2)n1
Reply | < 0.3 µM

Ask | IC50 for Cc1noc(-c2ccc(-c3ccc(C4(C(=O)O)CC4)cc3)cc2)c1Nc1cccc(-c2ccncc2)n1 ?
Reply | < 0.3 µM
